Data origin, for the record: patent US3954793A

# percent kill after 24 hours, synergist alone per record follows
Tested on: IN/WHO strain house flies
EXPERIMENT_NOTES: topical application, percent kill after 24 hours, susceptible IN/WHO strain
Assay type: in vivo, female)
CONDITIONS: insecticide 0, synergist 1 μg/fly
Your answer should be a plain number; it is taken to be in %.

# count of solved cases: 5
1) C#CCOCc1c(Cl)ccc(Cl)c1Cl: 0
2) C#CCOCc1cccc([N+](=O)[O-])c1Cl: 3
3) C#CCON=C(C)c1ccc(Cl)cc1: 0
4) C#CCON=Cc1ccc(Cl)cc1: 0
5) C#CCOCc1cccc2ccccc12: 0

Item: `C#CCOCc1c(Cl)cccc1[N+](=O)[O-]` Test system: IN/WHO strain house flies Read-out: percent kill after 24 hours, synergist alone Value: ? 10

Same read-out for C#CCOC(c1ccc(Cl)cc1)C(C)[N+](=O)[O-] (stereo not drawn) ? 0

Same read-out for `C#CCOCc1cccc(Cl)c1[N+](=O)[O-]` ? 7

Same read-out for `C#CCOCc1ccc(Cl)cc1[N+](=O)[O-]` ? 13

Same read-out for `C#CCON=C(C)c1ccc2ccccc2c1` ? 0

Same read-out for `C#CCON=Cc1cccc([N+](=O)[O-])c1` ? 0

Same read-out for `C#CCOCc1c(Cl)cccc1Cl` ? 10

Same read-out for `C#CCOCc1ccccc1[N+](=O)[O-]` ? 0

Same read-out for `C#CCOCc1ccc(Cl)c(Cl)c1Cl` ? 0

Same read-out for `C#CCOCc1ccc([N+](=O)[O-])c(Cl)c1` ? 10

Same read-out for `C#CCON=Cc1ccc(Cl)cc1Cl` ? 0

Same read-out for `C#CCOCc1ccc(Cl)c(Cl)c1` ? 0

Same read-out for `C#CCOCc1ccc(Cl)c([N+](=O)[O-])c1` ? 10

---

System: IN/WHO strain house flies
EXPERIMENT_NOTES: topical application, percent kill after 24 hours, susceptible IN/WHO strain
Format: in vivo, female)
CONDITIONS: Mobam 0.20 + synergist 1 μg/fly
PROPERTY_NAME: percent kill after 24 hours, with Mobam (%)
Your answer should be a plain number; it is taken to be in %.

# count of solved cases: 5
1. C#CCOCc1cccc([N+](=O)[O-])c1Cl: 89
2. C#CCOCc1c(Cl)ccc(Cl)c1Cl: 100
3. C#CCON=C(C)c1ccc2ccccc2c1: 47
4. C#CCOCc1ccc(Cl)c(Cl)c1: 99
5. C#CCON=C(C)c1ccc(Cl)cc1: 92

Which percent kill after 24 hours, with Mobam is listed for C#CCOC(c1ccc(Cl)cc1)C(C)[N+](=O)[O-] (stereo not shown) ? 64

Same read-out for `C#CCOCc1cccc(Cl)c1[N+](=O)[O-]` ? 97

---

# 24 hour mortality, with GS 13005 per record follows
Test system: German male cockroaches (Blatella Germanicus)
EXPERIMENT_NOTES: topical application to thorax, 24 hour mortality of German male cockroaches
Type: in vivo
CONDITIONS: GS 13005 dose 0.08 + synergist 0.40, pretreated with synergist two hours before insecticide
Numeric answer plus unit only.

Item: `C#CCOCc1ccc([N+](=O)[O-])cc1` Test system: German male cockroaches (Blatella Germanicus) Read-out: 24 hour mortality, with GS 13005 Value: ? 95%

Same read-out for `C#CCOCc1ccccc1[N+](=O)[O-]` ? 90%

Same read-out for `C#CCOCc1c(Cl)cccc1Cl` ? 100%

Same read-out for `C#CCON=Cc1cccc([N+](=O)[O-])c1` ? 95%

Same read-out for `C#CCOCc1cccc2ccccc12` ? 100%

Same read-out for `C#CCOCc1c(Cl)cccc1[N+](=O)[O-]` ? 100%

Same read-out for C#CCOC(c1ccc(Cl)cc1)C(C)[N+](=O)[O-] (stereo not shown) ? 90%
